The measured values listed here are drawn from paper PMC4229968.

target: UGT2B15 (Homo sapiens, UniProt P54855); construct: purchased BD Gentest Corp. (Woburn, MA, USA); host or cells: baculovirus-infected insect cells; experiment: Recombinant UGT2B15-catalyzed 4-MU glucuronidation inhibition; format: in vitro ADME; conditions: pH 7.4, probe 4-methylumbelliferone (4-MU), UGT2B15, 100 μM of compound, 4-MU substrate, read-out: residual activity
Sequence (P54855 24-530): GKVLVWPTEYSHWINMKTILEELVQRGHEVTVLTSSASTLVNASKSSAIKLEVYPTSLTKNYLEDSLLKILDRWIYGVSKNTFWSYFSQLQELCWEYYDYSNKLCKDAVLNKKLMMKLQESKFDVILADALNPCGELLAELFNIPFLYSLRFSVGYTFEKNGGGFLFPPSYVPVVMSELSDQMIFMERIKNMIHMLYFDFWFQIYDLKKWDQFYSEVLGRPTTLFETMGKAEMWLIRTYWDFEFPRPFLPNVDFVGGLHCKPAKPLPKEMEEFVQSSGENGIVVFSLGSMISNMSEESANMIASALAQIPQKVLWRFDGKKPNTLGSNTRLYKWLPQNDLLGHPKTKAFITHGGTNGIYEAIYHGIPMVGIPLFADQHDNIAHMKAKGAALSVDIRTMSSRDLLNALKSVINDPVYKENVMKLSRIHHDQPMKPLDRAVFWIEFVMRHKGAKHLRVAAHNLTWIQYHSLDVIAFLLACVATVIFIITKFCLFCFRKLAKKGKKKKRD
MEASUREMENT_TYPE: activity at 100 µM (%)
Give the value in % but do not write % after it.

Reported activity at 100 µM of CC1CCC2(OC1)OC1CC3C4CC=C5CC(O)CC(O)C5(C)C4CCC3(C)C1C2C (centres unmarked) : 55.5

Reported activity at 100 µM of "Cc1c(O)c(C)c2c(c1O)C(=O)[C@H](Cc1ccc3c(c1)OCO3)CO2" : 23.8

Reported activity at 100 µM of "COc1ccc(C[C@@H]2COc3c(C)c(O)c(C)c(O)c3C2=O)cc1" : 56.1

Reported activity at 100 µM of "C[C@@H]1CC[C@@]2(OC1)O[C@H]1C[C@H]3[C@@H]4CC=C5C[C@@H](O)C[C@@H](O[C@@H]6O[C@H](C)[C@H](O)[C@H](O[C@@H]7OC[C@@H](O)[C@H](O)[C@H]7O)[C@H]6O[C@@H]6O[C@@H](C)[C@H](O)[C@@H](O)[C@H]6O)[C@]5(C)[C@H]4CC[C@]3(C)[C@H]1[C@@H]2C" : 36.9

Reported activity at 100 µM of "C[C@@H]1CC[C@@]2(OC1)O[C@H]1C[C@H]3[C@@H]4CC=C5C[C@@H](O[C@@H]6O[C@H](CO)[C@@H](O)[C@H](O[C@@H]7OC[C@@H](O)[C@H](O)[C@H]7O)[C@H]6O[C@@H]6O[C@@H](C)[C@H](O)[C@@H](O)[C@H]6O)CC[C@]5(C)[C@H]4CC[C@]3(C)[C@H]1[C@@H]2C" : 35.5

----------
Please provide measured activity at 100 µM for the entries that follow.
Biological target: UGT1A8 (Homo sapiens)
Construct: purchased BD Gentest Corp. (Woburn, MA, USA); host or cells: baculovirus-infected insect cells
Sequence (Q9HAW9 26-530): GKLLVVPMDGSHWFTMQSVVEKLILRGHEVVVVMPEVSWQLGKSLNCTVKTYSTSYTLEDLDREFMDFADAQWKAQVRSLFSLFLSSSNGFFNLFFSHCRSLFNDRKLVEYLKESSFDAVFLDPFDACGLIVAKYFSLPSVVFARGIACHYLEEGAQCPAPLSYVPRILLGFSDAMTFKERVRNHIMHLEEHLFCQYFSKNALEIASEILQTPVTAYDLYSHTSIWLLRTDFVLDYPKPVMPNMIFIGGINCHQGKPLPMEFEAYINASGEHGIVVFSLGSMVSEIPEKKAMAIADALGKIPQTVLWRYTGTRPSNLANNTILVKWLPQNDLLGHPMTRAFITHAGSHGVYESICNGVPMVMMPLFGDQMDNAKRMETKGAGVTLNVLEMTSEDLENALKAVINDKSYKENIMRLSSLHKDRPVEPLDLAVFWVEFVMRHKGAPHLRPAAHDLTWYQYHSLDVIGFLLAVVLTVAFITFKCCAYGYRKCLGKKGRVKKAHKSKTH
Assay: Recombinant UGT1A8-catalyzed 4-MU glucuronidation inhibition
Type: in vitro ADME
Conditions: human, pH 7.4, probe 4-methylumbelliferone (4-MU); UGT1A8, 100 μM of compound, 4-MU substrate; read-out: residual activity
// unit must come after the numeric part

Reported activity at 100 µM of C[C@@H]1CC[C@@]2(OC1)O[C@H]1C[C@H]3[C@@H]4CC=C5C[C@@H](O)C[C@@H](O[C@@H]6O[C@H](C)[C@H](O)[C@H](O[C@@H]7OC[C@@H](O)[C@H](O)[C@H]7O)[C@H]6O[C@@H]6O[C@@H](C)[C@H](O)[C@@H](O)[C@H]6O)[C@]5(C)[C@H]4CC[C@]3(C)[C@H]1[C@@H]2C [OD, ophiopogonin D] : 17.3%

Reported activity at 100 µM of Cc1c(O)c(C)c2c(c1O)C(=O)[C@H](Cc1ccc3c(c1)OCO3)CO2 [MA, methylophiopogonanone A] : 20.5%

----------
molecular target: UGT1A1 (Homo sapiens, UniProt P22309); construct: purchased BD Gentest Corp. (Woburn, MA, USA); host or cells: baculovirus-infected insect cells; test: Recombinant UGT1A1-catalyzed 4-MU glucuronidation inhibition; type: in vitro ADME; conditions: pH 7.4, probe 4-methylumbelliferone (4-MU), UGT1A1, 100 μM of compound, 4-MU substrate, read-out: residual activity
Sequence (P22309 26-533): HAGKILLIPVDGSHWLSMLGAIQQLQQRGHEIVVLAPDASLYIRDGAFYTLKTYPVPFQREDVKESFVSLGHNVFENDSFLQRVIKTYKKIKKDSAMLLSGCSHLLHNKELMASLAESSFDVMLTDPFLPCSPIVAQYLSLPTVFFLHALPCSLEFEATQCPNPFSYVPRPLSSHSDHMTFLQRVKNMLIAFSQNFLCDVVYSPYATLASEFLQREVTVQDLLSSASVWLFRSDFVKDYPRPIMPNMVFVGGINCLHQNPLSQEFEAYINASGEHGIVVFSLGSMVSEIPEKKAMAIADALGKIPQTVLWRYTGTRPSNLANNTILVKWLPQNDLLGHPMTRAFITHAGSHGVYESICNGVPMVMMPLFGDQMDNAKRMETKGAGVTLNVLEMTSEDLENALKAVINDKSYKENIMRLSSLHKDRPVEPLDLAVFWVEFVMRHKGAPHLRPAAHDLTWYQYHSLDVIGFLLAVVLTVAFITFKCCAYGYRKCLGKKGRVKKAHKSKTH
Please provide measured activity at 100 µM for the entries that follow.

Reported activity at 100 µM of "COc1ccc(C[C@@H]2COc3c(C)c(O)c(C)c(O)c3C2=O)cc1" : 27.9%

Reported activity at 100 µM of CC1CCC2(OC1)OC1CC3C4CC=C5CC(O)CC(O)C5(C)C4CCC3(C)C1C2C (centres unmarked) : 41.5%

Reported activity at 100 µM of "Cc1c(O)c(C)c2c(c1O)C(=O)[C@H](Cc1ccc3c(c1)OCO3)CO2" : 31.3%

Reported activity at 100 µM of "C[C@@H]1CC[C@@]2(OC1)O[C@H]1C[C@H]3[C@@H]4CC=C5C[C@@H](O)C[C@@H](O[C@@H]6O[C@H](C)[C@H](O)[C@H](O[C@@H]7OC[C@@H](O)[C@H](O)[C@H]7O)[C@H]6O[C@@H]6O[C@@H](C)[C@H](O)[C@@H](O)[C@H]6O)[C@]5(C)[C@H]4CC[C@]3(C)[C@H]1[C@@H]2C" : 77.1%

Reported activity at 100 µM of "C[C@@H]1CC[C@@]2(OC1)O[C@H]1C[C@H]3[C@@H]4CC=C5C[C@@H](O[C@@H]6O[C@H](CO)[C@@H](O)[C@H](O[C@@H]7OC[C@@H](O)[C@H](O)[C@H]7O)[C@H]6O[C@@H]6O[C@@H](C)[C@H](O)[C@@H](O)[C@H]6O)CC[C@]5(C)[C@H]4CC[C@]3(C)[C@H]1[C@@H]2C" : 81%

----------
molecular target: UGT1A4 (Homo sapiens, UniProt P22310); construct: purchased BD Gentest Corp. (Woburn, MA, USA); host or cells: baculovirus-infected insect cells; test: Recombinant UGT1A4-catalyzed trifluoperazine (TFP) glucuronidation inhibition; assay type: in vitro ADME; conditions: human, probe trifluoperazine (TFP); UGT1A4, 100 μM of compound, TFP substrate (40 μM); read-out: residual activity
Sequence (P22310 29-534): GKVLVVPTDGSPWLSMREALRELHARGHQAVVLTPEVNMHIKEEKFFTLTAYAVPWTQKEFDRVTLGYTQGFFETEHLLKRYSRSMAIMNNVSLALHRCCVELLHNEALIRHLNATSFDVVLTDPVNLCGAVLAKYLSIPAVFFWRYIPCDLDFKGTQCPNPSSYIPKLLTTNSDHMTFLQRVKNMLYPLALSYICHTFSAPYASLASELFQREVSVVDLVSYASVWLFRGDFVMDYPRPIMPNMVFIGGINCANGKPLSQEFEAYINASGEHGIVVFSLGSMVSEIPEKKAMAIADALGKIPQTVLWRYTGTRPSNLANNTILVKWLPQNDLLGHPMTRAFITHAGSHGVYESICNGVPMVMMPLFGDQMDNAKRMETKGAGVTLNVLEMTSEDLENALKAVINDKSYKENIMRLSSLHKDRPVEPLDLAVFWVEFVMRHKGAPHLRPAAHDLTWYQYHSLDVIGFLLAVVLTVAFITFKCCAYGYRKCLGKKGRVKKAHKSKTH
Please provide measured activity at 20 min, 100 μM for the entries that follow.
Give the value in % but do not write % after it.

Reported activity at 20 min, 100 μM of CC1CCC2(OC1)OC1CC3C4CC=C5CC(O)CC(O)C5(C)C4CCC3(C)C1C2C (stereo not drawn) [RU, ruscorectal] : 0

Reported activity at 20 min, 100 μM of Cc1c(O)c(C)c2c(c1O)C(=O)[C@H](Cc1ccc3c(c1)OCO3)CO2 [MA, methylophiopogonanone A] : 70.4

Reported activity at 20 min, 100 μM of C[C@@H]1CC[C@@]2(OC1)O[C@H]1C[C@H]3[C@@H]4CC=C5C[C@@H](O[C@@H]6O[C@H](CO)[C@@H](O)[C@H](O[C@@H]7OC[C@@H](O)[C@H](O)[C@H]7O)[C@H]6O[C@@H]6O[C@@H](C)[C@H](O)[C@@H](O)[C@H]6O)CC[C@]5(C)[C@H]4CC[C@]3(C)[C@H]1[C@@H]2C [OD′, ophiopogonin D′] : 21

----------
Please provide measured activity at 20 min, 100 μM for the entries that follow.
target: UGT1A4 (Homo sapiens, UniProt P22310); construct: purchased BD Gentest Corp. (Woburn, MA, USA); host or cells: baculovirus-infected insect cells; experiment: Recombinant UGT1A4-catalyzed trifluoperazine (TFP) glucuronidation inhibition; assay type: in vitro ADME; details: human, probe trifluoperazine (TFP); UGT1A4, 100 μM of compound, TFP substrate (40 μM); read-out: residual activity
Give the value in % but do not write % after it.

Reported activity at 20 min, 100 μM of "COc1ccc(C[C@@H]2COc3c(C)c(O)c(C)c(O)c3C2=O)cc1" : 81.1

Reported activity at 20 min, 100 μM of "C[C@@H]1CC[C@@]2(OC1)O[C@H]1C[C@H]3[C@@H]4CC=C5C[C@@H](O)C[C@@H](O[C@@H]6O[C@H](C)[C@H](O)[C@H](O[C@@H]7OC[C@@H](O)[C@H](O)[C@H]7O)[C@H]6O[C@@H]6O[C@@H](C)[C@H](O)[C@@H](O)[C@H]6O)[C@]5(C)[C@H]4CC[C@]3(C)[C@H]1[C@@H]2C" : 24.6

----------
Please provide measured activity at 100 µM for the entries that follow.
biological target: UGT2B7 (Homo sapiens, UniProt P16662); construct: purchased BD Gentest Corp. (Woburn, MA, USA); host or cells: baculovirus-infected insect cells; assay: Recombinant UGT2B7-catalyzed 4-MU glucuronidation inhibition; format: in vitro ADME; conditions: pH 7.4, probe 4-methylumbelliferone (4-MU), UGT2B7, 100 μM of compound, 4-MU substrate, read-out: residual activity
Sequence (P16662 24-529): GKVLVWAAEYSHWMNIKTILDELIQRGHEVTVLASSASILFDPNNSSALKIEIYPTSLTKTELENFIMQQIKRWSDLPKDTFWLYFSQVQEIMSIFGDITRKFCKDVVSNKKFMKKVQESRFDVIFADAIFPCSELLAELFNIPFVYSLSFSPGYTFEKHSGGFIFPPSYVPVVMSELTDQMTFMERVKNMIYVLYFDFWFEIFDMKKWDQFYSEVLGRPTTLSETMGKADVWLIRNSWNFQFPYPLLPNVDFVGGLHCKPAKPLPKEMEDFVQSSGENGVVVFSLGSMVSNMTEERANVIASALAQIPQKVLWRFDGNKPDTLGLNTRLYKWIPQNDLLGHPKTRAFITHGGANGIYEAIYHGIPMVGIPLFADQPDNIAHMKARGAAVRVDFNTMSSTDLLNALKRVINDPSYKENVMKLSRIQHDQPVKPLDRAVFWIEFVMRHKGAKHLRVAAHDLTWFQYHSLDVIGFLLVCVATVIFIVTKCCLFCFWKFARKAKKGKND
Give the value in % but do not write % after it.

I looked up C[C@@H]1CC[C@@]2(OC1)O[C@H]1C[C@H]3[C@@H]4CC=C5C[C@@H](O[C@@H]6O[C@H](CO)[C@@H](O)[C@H](O[C@@H]7OC[C@@H](O)[C@H](O)[C@H]7O)[C@H]6O[C@@H]6O[C@@H](C)[C@H](O)[C@@H](O)[C@H]6O)CC[C@]5(C)[C@H]4CC[C@]3(C)[C@H]1[C@@H]2C [OD′, ophiopogonin D′] and its activity at 100 µM for UGT2B7 (Homo sapiens, UniProt P16662) was 77.4

I looked up COc1ccc(C[C@@H]2COc3c(C)c(O)c(C)c(O)c3C2=O)cc1 [MB, methylophiopogonanone B] and its activity at 100 µM for UGT2B7 (Homo sapiens, UniProt P16662) was 82.8

I looked up CC1CCC2(OC1)OC1CC3C4CC=C5CC(O)CC(O)C5(C)C4CCC3(C)C1C2C (centres unmarked) [RU, ruscorectal] and its activity at 100 µM for UGT2B7 (Homo sapiens, UniProt P16662) was 125

I looked up C[C@@H]1CC[C@@]2(OC1)O[C@H]1C[C@H]3[C@@H]4CC=C5C[C@@H](O)C[C@@H](O[C@@H]6O[C@H](C)[C@H](O)[C@H](O[C@@H]7OC[C@@H](O)[C@H](O)[C@H]7O)[C@H]6O[C@@H]6O[C@@H](C)[C@H](O)[C@@H](O)[C@H]6O)[C@]5(C)[C@H]4CC[C@]3(C)[C@H]1[C@@H]2C [OD, ophiopogonin D] and its activity at 100 µM for UGT2B7 (Homo sapiens, UniProt P16662) was 85.4

I looked up Cc1c(O)c(C)c2c(c1O)C(=O)[C@H](Cc1ccc3c(c1)OCO3)CO2 [MA, methylophiopogonanone A] and its activity at 100 µM for UGT2B7 (Homo sapiens, UniProt P16662) was 23.3
